# bead assay binding signal per entry
- system-name: SARS-CoV-2 full length Spike protein, lineage B.1.1.7 (SARS-CoV-2)
Answer field: number only, no words.

| binder | bead assay binding signal |
| --- | --- |
| antibody 1444 (antibody, V domains shown) VH: QVQLVQSGAEVKKPGASVKVSCKASGYTFTAYYMHWVRQAPGQGLEWMGWINPNSDDTNYAQKFQGRVTMTRDTSISTAYMELSRLRSDDTAVYYCAREEGVFTIGDRYFDLWGRGTLVSVSS VL: QTVVTQEPSFSVSPGGTVTLTCGLSSGSVSTSYYPSWYQQTPGQAPRTLIYNTNTRSSGVPDRFSGSILGNKAALTITGAQADDESDYYCVLYMGSGIWVFGGGTKLTVLG | 626 |

Next, consider the following binder.
Request the reported bead assay binding signal associated with antibody 851 (antibody, V domains shown) VH: QITLKESGPTLVKPTQTLTLTCTFSGFSLSTNGVGMGWIRQPPGKALEWLALIYWDDDQFYSPSLKSRLTITRDTSKNQVVLTMTNMDPVDTATYYCAQAFYESFGFYSWGQGTLVTVSS VL: NFMLTQPHSVSESPGKTVIISCTRSIGSIASNYVQWYQQRPGSAPTIVVFEDNERPSGVPDRFSGSIDRSSNSASLTISGLKTEDEADYYCQSYDGSSELVFGGGTKLTVLG
545
